Assay: Pharmacokinetic evaluation in SD rats
Type: in vivo
Details: SD, rat, plasma, 50 mg/kg, n=4, 0-8 hrs, read-out: AUC (area under the blood concentration-time curve)
MEASURED ENDPOINT: AUC (ng·h/mL)

INSERT INTO measurements (compound, measured_endpoint, endpoint_result) VALUES
  ('Cc1nc(-c2ccc(OCCCCCOc3ccc(C(=N)NO)cc3)cc2)c(C(C)C)s1 [Free base]', 'AUC', 5310);

----------
Assay: Solubility in various solvents at room temperature
Format: physicochemical
Conditions: solvent of pH 4.0 (composition not named), pH 4, aqueous buffer, pH 4.0, room temperature; read-out: solubility
Counter-ions that a name gives are not always drawn.
MEASURED ENDPOINT: solubility (µg/mL)

INSERT INTO assay_data (molecule, measured_endpoint, endpoint_result) VALUES
  ('Cc1nc(-c2ccc(OCCCCCOc3ccc(C(=N)NO)cc3)cc2)c(C(C)C)s1 [2 methanesulfonic acid salt]', 'solubility', 3);
